PROCEDURE SUMMARY: Clearance in male Sprague-Dawley rat at 10 mg/kg, iv
Format: ADME, organism-based
CONDITIONS: in vivo
ATTRIBUTE MEASURED: clearance (mL/min/kg)
One number for each entry, in mL/min/kg.

Look up clearance for this compound: COc1cccc(-c2cc(NCc3ccc4[nH]ccc4c3)nc(N)n2)c1
42.5

----------
Tested on: HeLa
PROCEDURE SUMMARY: Antiproliferative activity against human HeLa cells assessed as reduction in cell viability measured after 72 hrs
Assay type: functional, cell-based
ATTRIBUTE MEASURED: pIC50
Numbers only, as −log10 of the molar value.

Past entries and their recorded results:
* CCN(Cc1ccc2c(c1)OCO2)c1cc(-c2cccc(OC)c2)nc(N)n1 | 7.70
* COc1ccc(-c2cc(NCc3ccc4c(c3)OCO4)nc(N)n2)cn1 | 6.70

Look up pIC50 for this molecule: C=CCN(Cc1ccc2c(c1)OCO2)c1cc(-c2cccc(OC)c2)nc(N)n1
6.96

----------
Tested on: HCT-116
PROCEDURE SUMMARY: cells
CONDITIONS: Homo sapiens, HCT-116, 72 h
Description: Antiproliferative activity against human HCT-116 cells assessed as reduction in cell viability measured after 72 hrs
Assignment: determine reported IC50 for the given compounds.
Numbers only, in µM.

- CN(C)c1cccc(-c2cc(NCc3ccc4c(c3)OCO4)nc(N)n2)c1: 0.55

Go through the list and state IC50 for each entry.
1. COc1cccc(-c2cc(NCc3ccc(F)cc3F)nc(N)n2)c1
2. Cc1ccc(-c2cc(NCc3ccc4c(c3)OCO4)nc(N)n2)cc1

0.18
0.42

----------
PROCEDURE SUMMARY: Tmax in male Sprague-Dawley rat at 10 mg/kg, iv
Assay type: ADME, organism-based
CONDITIONS: in vivo
ATTRIBUTE MEASURED: Tmax (min)
Numbers only, in min.

Look up Tmax for this compound: COc1cccc(-c2cc(NCc3ccc4[nH]ccc4c3)nc(N)n2)c1
4.8

----------
PROCEDURE SUMMARY: Cmax in male Sprague-Dawley rat at 10 mg/kg, iv
Type: ADME, organism-based
CONDITIONS: in vivo
ATTRIBUTE MEASURED: Cmax (ng/mL)
Give bare numbers, in ng/mL.

Look up Cmax for this molecule: COc1cccc(-c2cc(NCc3ccc4[nH]ccc4c3)nc(N)n2)c1
2890

----------
Tested on: HCT-116
PROCEDURE SUMMARY: cells
CONDITIONS: Homo sapiens, HCT-116, 72 h
Assignment: determine reported IC50 for the given compounds.

* CCCN(Cc1ccc2c(c1)OCO2)c1cc(-c2cccc(OC)c2)nc(N)n1 | 110 nM
* Nc1nc(NCc2ccc3c(c2)OCO3)cc(-c2ccncc2)n1 | > 2000 nM
* CC(C)c1ccc(-c2cc(NCc3ccc4c(c3)OCO4)nc(N)n2)cc1 | > 2000 nM
* Nc1nc(NCc2ccc3c(c2)OCO3)cc(-c2ccc3c(c2)CCN3)n1 | 300 nM

Go through the list and state IC50 for each entry.
1. Nc1nc(NCc2ccc3c(c2)OCO3)cc(-c2ccc3c(c2)OCCO3)n1
2. COc1cccc(-c2cc(NCc3ccccc3)nc(N)n2)c1
3. Nc1nc(NCc2ccc3c(c2)OCO3)cc(-c2cccc3ccccc23)n1
4. Cn1cc2c(-c3cc(NCc4ccc5c(c4)OCO5)nc(N)n3)cccc2n1

["710 nM", "920 nM", "770 nM", "> 2000 nM"]

----------
Test system: NCI/ADR-RES
PROCEDURE SUMMARY: Antiproliferative activity against human MCF7ADR cells assessed as reduction in cell viability measured after 72 hrs
Type: functional, cell-based
Counter-ions that a name gives are not always drawn.
ATTRIBUTE MEASURED: IC50
A complete answer gives the number and then names the unit.

• COc1cccc(-c2cc(NCc3ccc4[nH]ccc4c3)nc(N)n2)c1 = 0.032 µM

Look up IC50 for this compound: COc1cccc2c1C(=O)c1c(O)c3c(c(O)c1C2=O)C[C@@](O)(C(=O)CO)C[C@@H]3O[C@H]1C[C@H](N)[C@H](O)[C@H](C)O1 [DOXORUBICIN HYDROCHLORIDE]
8.63 µM

----------
Tested on: HeLa
PROCEDURE SUMMARY: Antiproliferative activity against human HeLa cells assessed as reduction in cell viability measured after 72 hrs
Assay type: functional, cell-based
Assignment: determine reported IC50 for the given compounds.
Numbers only, in nM.

* Nc1nc(NCc2ccc3c(c2)OCO3)cc(-c2ccoc2)n1 | 910
* COc1cc(OC)cc(-c2cc(NCc3ccc4c(c3)OCO4)nc(N)n2)c1 | 180

Would you kindly look at the next entry?
I'm curious: which IC50 was measured for CN(C)c1cccc(-c2cc(NCc3ccc4c(c3)OCO4)nc(N)n2)c1 tested on HeLa?
280

----------
Test system: K562
PROCEDURE SUMMARY: Antiproliferative activity against human K562 cells assessed as reduction in cell viability measured after 72 hrs
Assay type: functional, cell-based
CONDITIONS: K562, 72 h
Assignment: determine reported pIC50 for the given compounds.
Answers are plain numbers, as −log10 of the molar value.

• C=CCN(Cc1ccc2c(c1)OCO2)c1cc(-c2cccc(OC)c2)nc(N)n1 = 7.22

Go through the list and state pIC50 for each entry.
1. COc1cc(OC)cc(-c2cc(NCc3ccc4c(c3)OCO4)nc(N)n2)c1
2. COc1cccc(-c2cc(NCc3ccc4c(c3)OCO4)ncn2)c1
3. Nc1nc(NCc2ccc3c(c2)OCO3)cc(-c2cccc(OCc3ccccc3)c2)n1
4. Nc1nc(NCc2ccc3c(c2)OCO3)cc(-c2ccoc2)n1
5. CN(C)c1cccc(-c2cc(NCc3ccc4c(c3)OCO4)nc(N)n2)c1

1: 7.22; 2: 5.06; 3: 6.13; 4: 6.55; 5: 6.52

Go through the list and state pIC50 for each entry.
1. COc1cccc(-c2cc(NCc3cc(OC)c(OC)c(OC)c3)nc(N)n2)c1
2. COc1cccc(-c2cc(N3CCc4cc(OC)c(OC)cc4C3)nc(N)n2)c1
3. Nc1nc(NCc2ccc3c(c2)OCO3)cc(-c2ccc3c(c2)CCN3)n1
4. COc1cccc(-c2cc(NCc3ccc(OC(F)(F)F)cc3)nc(N)n2)c1
5. COc1cccc(-c2cc(NCc3ccc(OC)c(OC)c3)nc(N)n2)c1
6. COc1cccc(-c2cc(N)nc(NCc3ccc4c(c3)OCO4)c2)c1
7. Nc1nc(NCc2ccc3c(c2)OCO3)cc(-c2ccccc2)n1
8. COc1cccc(-c2cc(NCc3ccc4ccccc4c3)nc(N)n2)c1

6.55
6.48
7.70
6.59
7.15
4.71
6.85
6.49

Look up pIC50 for this compound: Cc1ccc(-c2cc(NCc3ccc4c(c3)OCO4)nc(N)n2)cc1
6.82

----------
PROCEDURE SUMMARY: Clearance in male Sprague-Dawley rat at 10 mg/kg, po
Type: ADME, organism-based
CONDITIONS: in vivo
ATTRIBUTE MEASURED: CL/F (mL/min/kg)
One number for each entry, in mL/min/kg.

Look up CL/F for this compound: COc1cccc(-c2cc(NCc3ccc4[nH]ccc4c3)nc(N)n2)c1
314

----------
PROCEDURE SUMMARY: Half life in male Sprague-Dawley rat at 10 mg/kg, po
Type: ADME, organism-based
CONDITIONS: in vivo
ATTRIBUTE MEASURED: half-life

Look up half-life for this compound: COc1cccc(-c2cc(NCc3ccc4[nH]ccc4c3)nc(N)n2)c1
5.94 h

----------
System: K562
PROCEDURE SUMMARY: Antiproliferative activity against human K562 cells assessed as reduction in cell viability measured after 72 hrs
Format: functional, cell-based
CONDITIONS: K562, 72 h
ATTRIBUTE MEASURED: IC50 (nM)
Answers are plain numbers, in nM.

Past entries and their recorded results:
* COc1cccc(-c2cc(NCc3ccccc3)nc(N)n2)c1 | 270
* COc1cccc(-c2cc(N(C)Cc3ccc4c(c3)OCO4)nc(N)n2)c1 | 40
* COc1cccc(-c2cc(NCc3ccc(F)cc3F)nc(N)n2)c1 | 120
* CCN(Cc1ccc2c(c1)OCO2)c1cc(-c2cccc(OC)c2)nc(N)n1 | 40
* Nc1nc(NCc2ccc3c(c2)OCO3)cc(-c2ccc3c(c2)OCCO3)n1 | 170

Go through the list and state IC50 for each entry.
1. COc1cccc(-c2cc(NCc3cccc(F)c3)nc(N)n2)c1
2. CC(=O)O[C@H]1C(=O)[C@@]2(C)[C@H]([C@H](OC(=O)c3ccccc3)[C@]3(O)C[C@H](OC(=O)[C@H](O)[C@@H](NC(=O)c4ccccc4)c4ccccc4)C(C)=C1C3(C)C)[C@]1(OC(C)=O)CO[C@@H]1C[C@@H]2O
3. CCCN(Cc1ccc2c(c1)OCO2)c1cc(-c2cccc(OC)c2)nc(N)n1
4. COc1ccc(CNc2cc(-c3cccc(OC)c3)nc(N)n2)cc1
5. COc1cccc(-c2cc(NCc3cc(F)cc(F)c3)nc(N)n2)c1
6. COc1cccc(-c2cc(NCc3ccc4c(c3)OCO4)nc(N)n2)c1
7. COc1ccc(-c2cc(NCc3ccc4c(c3)OCO4)nc(N)n2)cn1

1: 320; 2: 15; 3: 80; 4: 130; 5: 350; 6: 100; 7: 120

Go through the list and state IC50 for each entry.
1. COc1cccc(-c2cc(NCc3ccc4[nH]ccc4c3)nc(N)n2)c1
2. Nc1nc(NCc2ccc3c(c2)OCO3)cc(-c2cccc3ccccc23)n1
3. Nc1nc(NCc2ccc3c(c2)OCO3)cc(-c2ccc3c(c2)OCO3)n1
4. Nc1nc(NCc2ccc3c(c2)OCO3)cc(-c2ccc3ccccc3c2)n1

1. 30
2. 250
3. 70
4. 1820
